Some molecules, each annotated with its measured Ki.
target: P2Y purinoceptor 1 (Homo sapiens, UniProt P47900); test: Scintillation Proximity Assay (SPA): A SPA membrane binding assay was used to identify inhibitors of [33P] […] Binding reactions were performed in 384-well OptiPlates (PerkinElmer Life Sciences, Cat #6007299) in a volume of 50 uL containing 15 fmol of P2Y1 receptor (1.7 ug of total protein), 0.3 nM [33P] […] Reactions were allowed to proceed to completion at room temperature for 1 hour followed by centrifugation of the plate for 5 min. About 40 uL of the aqueous soluttion was aspirated. Plates were sealed and the [33P]
Sequence (P47900 whole entry): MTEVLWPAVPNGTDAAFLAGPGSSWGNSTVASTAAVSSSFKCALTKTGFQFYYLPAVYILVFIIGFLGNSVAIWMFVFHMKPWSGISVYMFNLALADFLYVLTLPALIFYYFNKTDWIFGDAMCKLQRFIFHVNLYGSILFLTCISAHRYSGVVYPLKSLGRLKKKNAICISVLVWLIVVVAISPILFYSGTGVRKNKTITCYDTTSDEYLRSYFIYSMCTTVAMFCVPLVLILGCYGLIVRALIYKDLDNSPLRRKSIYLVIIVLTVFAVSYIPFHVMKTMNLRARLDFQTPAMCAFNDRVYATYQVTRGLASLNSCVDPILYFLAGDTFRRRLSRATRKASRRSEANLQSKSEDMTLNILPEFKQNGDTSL
Respond numerically; units are nM and should not be typed.

Here is how some molecules turned out for Ki.
Structure as smiles: CC(C)(C)CN1CCC2(CC1)CN(c1ccccc1NC(=O)Nc1csc(Cl)n1)c1c(O)cc(F)c(Cl)c12
Recorded result: 19
--
Structure as smiles: CC(C)(C)CN1CCC2(CC1)CN(c1ccccc1NC(=O)Nc1nc3ccc(Cl)nc3s1)c1c(O)ccc(-c3nc4cc(C(F)(F)F)ccc4s3)c12
Recorded result: 24.6
--
Structure as smiles: CC(C)N1CCC2(CC1)CN(c1ccccc1NC(=O)Nc1ccc(OC(F)(F)F)cc1)c1c(O)ccc(-c3nc4cc(Cl)ccc4s3)c12
Recorded result: 24

Identify measured Ki associated with "CC(C)(C)CN1CCC2(CC1)CN(c1ccccc1NC(=O)Nc1nc3ccc(Cl)cc3s1)c1c(O)cc(F)c(Cl)c12" 23.1

Identify measured Ki associated with "CC(C)(C)CN1CCC2(CC1)CN(c1ccccc1NC(=O)Nc1ccc(OC(F)(F)F)cc1)c1c(O)ccc(-c3nc4ccc(Cl)cc4s3)c12" 73.4

Identify measured Ki associated with "CC(C)(C)CN1CCC2(CC1)CN(c1ccccc1NC(=O)Nc1nc3ccc(F)cc3s1)c1c(O)ccc(-c3nc4ccc(Cl)cc4s3)c12" 104

Identify measured Ki associated with "CC(C)(C)CN1CCC2(CC1)CN(c1ccccc1NC(=O)Nc1ccc(OC(F)(F)F)cc1)c1c(O)ccc(-c3nc4cc(Cl)ccc4s3)c12" 137

Identify measured Ki associated with "CC(C)(C)CN1CCC2(CC1)CN(c1ccccc1NC(=O)Nc1csc(Cl)n1)c1c(O)ccc(-c3nc4cccc(Cl)c4s3)c12" 18.4

Identify measured Ki associated with "CC(C)(C)CN1CCC2(CC1)CN(c1ccccc1NC(=O)Nc1csc(Cl)n1)c1c(O)ccc(-c3nc4cc(Cl)ccc4s3)c12" 9.1

----------
target: UniProtKB P47900; experiment: Scintillation Proximity Assay (SPA): A SPA membrane binding assay was used to identify inhibitors of [33P] […] Binding reactions were performed in 384-well OptiPlates (PerkinElmer Life Sciences, Cat #6007299) in a volume of 50 uL containing 15 fmol of P2Y1 receptor (1.7 ug of total protein), 0.3 nM [33P] […] Reactions were allowed to proceed to completion at room temperature for 1 hour followed by centrifugation of the plate for 5 min. About 40 uL of the aqueous soluttion was aspirated. Plates were sealed and the [33P]
Endpoint label: Ki
Include the unit right after the number.

Here is how some molecules turned out for Ki.
Structure as smiles: CC(C)CN1CCC2(CC1)CN(c1ccccc1NC(=O)Nc1ccc(OC(F)(F)F)cc1)c1c(O)ccc(-c3nc4cc(Cl)ccc4s3)c12
Ki: 9.6 nM
--
Structure as smiles: CC(C)(C)CN1CCC2(CC1)CN(c1ccccc1NC(=O)Nc1nc3ccc(Cl)nc3s1)c1c(O)ccc(-c3nc4cc(Cl)ccc4s3)c12
Ki: 53.7 nM

Identify measured Ki associated with "CC(C)(C)CN1CCC2(CC1)CN(c1ccccc1NC(=O)Nc1nc3ccc(F)cc3s1)c1c(O)ccc(-c3nc4cc(Cl)ccc4s3)c12" 1.2 nM
